Each entry below lists one item and its recorded TGI value.
Test system: UACC-62 melanoma
Assay: NCI tumour cell line growth inhibition, 48 h
Where a SMILES comes first, the peptide text is derived from it. The star is where a group is joined. Cbz = O=C(OCc1ccccc1)*
EXPERIMENTAL_ENDPOINT: TGI

COMPOUND: CCOC(=O)c1nc(SC)sc1NC(=O)c1ccc(OC)cc1
OBSERVED: > 100 µM
--
COMPOUND: N#C/C=C(/NC(=O)Nc1ccccc1)N1CCCC1
OBSERVED: > 100 µM
--
COMPOUND: Cc1ccc(S(=O)(=O)N(CC(O)COc2ccccc2)c2c(F)c(F)c(F)c(F)c2F)cc1 (centres undefined)
OBSERVED: 33.5 µM
--
COMPOUND: CC(C)N1CCOC(c2ccc(O)c(O)c2)C1 (centres undefined)
OBSERVED: > 100 µM
--
COMPOUND: CC(C)(Sc1cc(C(C)(C)C)c(O)c(C(C)(C)C)c1)Sc1cc(C(C)(C)C)c(O)c(C(C)(C)C)c1
OBSERVED: > 100 µM
--
COMPOUND: CC1=C[C@H](C[C@]2(C)c3c(c4c(C)cccc4oc3=O)O[C@@H]2C)OC1=O
OBSERVED: > 100 µM
--
COMPOUND: CCCCCOC(=O)c1c(C)[nH]c(/C=C2\N=C(c3ccc[nH]3)C=C2OC)c1C
OBSERVED: 0.0491 µM
--
COMPOUND: O=S1(=O)[C@H](c2ccccc2)c2c(-c3ccccc3)sc(-c3ccccc3)c2[C@@H]1c1ccccc1
OBSERVED: > 100 µM
--
COMPOUND: Oc1ccc(CCNc2nc3ccccc3c3[nH]c4ccccc4c23)cc1O
OBSERVED: 13.4 µM
--
COMPOUND: Cc1cc(C)c2c(c1)CSCc1cc(C)cc(C)c1-2
OBSERVED: > 100 µM
--
COMPOUND: O=C1C2C3SC(c4cc5ccccc5cc43)C2C(=O)N1c1ccccc1 (centres undefined)
OBSERVED: > 100 µM
--
COMPOUND: O=c1c(-c2cccc3ccccc23)c(-c2cccc3ccccc23)c1=O
OBSERVED: > 100 µM
--
COMPOUND: OC(c1ccccc1)c1c(-c2ccccc2)[nH]c(-c2ccccc2)c1C(O)c1ccccc1 (centres undefined)
OBSERVED: 7.97 µM
--
COMPOUND: CCCCOC(=O)Nc1ccc(S(=O)(=O)Nc2c(Cl)cccc2Cl)cc1
OBSERVED: 54.6 µM
--
COMPOUND: C=C(C)[C@@H]1CC[C@]2(C(=O)OC)CC[C@]3(C)[C@H](CC[C@@H]4[C@@](C)(CCc5nn[nH]n5)[C@H](C(=C)C)CC[C@]43C)[C@@H]12
OBSERVED: 19.6 µM
--
COMPOUND: C[C@]12C(=O)OC[C@H](c3ccccc3)N1C(=O)N(Cc1ccccc1)[C@@H]2CO
OBSERVED: > 100 µM
--
COMPOUND: CCOC(=O)CCC(NC(=O)C(CC(=O)OC)NC(=O)OCc1ccccc1)C(=O)NC(CC(=O)OC)C(=O)NC(CCC(=O)OCC)C(=O)NC(CC(=O)OC)C(=O)NC(CCC(=O)OCC)C(=O)NC(CC(=O)OCC)C(=O)OCC (centres undefined) (Cbz-D(OMe)E(OEt)D(OMe)E(OEt)D(OMe)E(OEt)D(OEt)-OEt; configuration not given here)
OBSERVED: > 100 µM
--
COMPOUND: O=C1CC(Nc2ccccc2)c2c(Cl)sc(Cl)c21 (centres undefined)
OBSERVED: 2.69 µM
--
COMPOUND: C[C@]12CC[C@H]3[C@@H](CCC4=CC(=O)CC[C@@]43C)[C@]1(O)CC[C@]2(O)C(=O)CO
OBSERVED: > 100 µM
--
COMPOUND: CN(C)c1ccc(-c2c(C#N)c(-c3ccccc3)n(NS(=O)(=O)c3ccccc3)c(=O)c2C#N)cc1
OBSERVED: > 100 µM
--
COMPOUND: OC1C2CN3CCN(C2)CC1(c1ccccc1)C3 (centres undefined)
OBSERVED: > 100 µM
--
COMPOUND: Cc1cccc(-c2nc(=S)[nH][nH]2)c1
OBSERVED: > 100 µM
--
COMPOUND: CCOC(=O)N1CCC2(CC1)C[C@](Sc1ccccc1)(C(C)=O)[C@H](C)O2
OBSERVED: > 100 µM
--
COMPOUND: CCOC(=O)c1ccc(N2C(=O)/C(=C/c3ccc(N(CCC#N)CCC#N)cc3)N=C2c2cc([N+](=O)[O-])ccc2Cl)cc1
OBSERVED: > 100 µM

----------
Each entry below lists one item and its recorded TGI value.
Tested on: K-562 leukemia
Experiment: NCI tumour cell line growth inhibition, 48 h

COMPOUND: CSC(=Nc1ccccc1)c1c(C)[nH]n(-c2ccccc2)c1=O
TGI: > 100 µM

COMPOUND: CC(C)N1CCOC(c2ccc(O)c(O)c2)C1 (configuration not stated)
TGI: > 100 µM

COMPOUND: CC1OC1C(=O)P(=O)(O)O (configuration not stated)
TGI: > 100 µM

COMPOUND: CCN1CC2=C(OC(N)=C(C#N)C2c2ccc(Cl)cc2)/C(=C/c2ccc(Cl)cc2)C1 (configuration not stated)
TGI: > 100 µM

COMPOUND: COc1cc2ncnc(Nc3cccc(Br)c3)c2cc1OC
TGI: > 55.5 µM

COMPOUND: CC(C)(C)OC(=O)C1C(=O)NC(=O)CC1C(OCc1ccccc1)C(OCc1ccccc1)C(COCc1ccccc1)OCc1ccccc1 (configuration not stated)
TGI: > 100 µM

COMPOUND: O=c1[nH]c(=O)n(Cc2ccc(C34CC5CC(CC(C5)C3)C4)c(O)c2)cc1F
TGI: 18.2 µM

COMPOUND: Nc1nc(N)c2cc(S(=O)(=O)c3cccc(C(F)(F)F)c3)ccc2n1
TGI: > 100 µM

COMPOUND: CCOC(=O)c1nc(SC)sc1NC(=O)c1ccc(OC)cc1
TGI: > 100 µM

COMPOUND: COCCn1c(Nc2ccc(C(=O)NO)cc2)nc2ccccc21
TGI: > 100 µM

COMPOUND: O=C(CSc1nc2ccccc2c(=O)n1-c1ccccc1)N=Nc1c(O)[nH]c2ccc(Br)cc12
TGI: 10.3 µM

COMPOUND: Fc1ccc(/C=C2\COCC3=C2NC(=S)NC3c2ccc(F)cc2)cc1 (configuration not stated)
TGI: 44.6 µM

----------
Tested on: DU-145 prostate
Assay: NCI tumour cell line growth inhibition, 48 h; in the data active = GI50 below about 0.43 µM; inactive = the rest
Possible outcomes: 1.0 = active, 0.0 = inactive

COMPOUND: N#Cc1nc2cc(Cl)c(Cl)cc2nc1-c1ccc(Cl)cc1
LABEL: 0.0

COMPOUND: COc1cc2c(cc1OCCCCCOc1ccc(-c3nc4ccccc4s3)cc1)N=C[C@@H]1CCCN1C2=O
LABEL: 0.0

COMPOUND: COc1ccc2c(c1[N+](=O)[O-])CC[C@@H]1[C@@H]2CC[C@]2(C)C(=O)CC[C@@H]12
LABEL: 0.0

COMPOUND: COc1cccc2c1C(=O)c1c(O)c3c(c(O)c1C2=O)C[C@@](O)(/C(C)=N/NC(=O)c1cccc([N+](=O)[O-])c1)C[C@@H]3OC1CC(N)C(O)C(C)O1 (stereo partly specified)
LABEL: 1.0

COMPOUND: Cc1cc[c]([Sb]2[O]C(CO)C(C(O)C(O)C(=O)O)[O]2)cc1 (stereo unspecified)
LABEL: 0.0

COMPOUND: N#CSc1c[nH]c2ccc(/C=C/C(=O)/C=C(O)/C=C/c3ccc4[nH]cc(SC#N)c4c3)cc12
LABEL: 0.0

----------
System: DMS 273 small cell lung
Assay: NCI tumour cell line growth inhibition, 48 h
EXPERIMENTAL_ENDPOINT: TGI

MOLECULE: Cc1cc(C)c2c(c1)CSCc1cc(C)cc(C)c1-2
OBSERVED: > 100 µM
//
MOLECULE: O=C1c2ccccc2C(=O)N1C/C=N/NS(=O)(=O)c1cccc([N+](=O)[O-])c1
OBSERVED: > 100 µM
//
MOLECULE: O=C(O)c1ccccc1NS(=O)(=O)c1ccc(Cl)cc1
OBSERVED: > 100 µM
//
MOLECULE: CCCN(CCC)C1CC(n2cc(C)c(=O)[nH]c2=O)OC1CO (stereo not given)
OBSERVED: > 100 µM
//
MOLECULE: COc1ccc2c(c1[N+](=O)[O-])CC[C@@H]1[C@@H]2CC[C@]2(C)C(=O)CC[C@@H]12
OBSERVED: > 25 µM
//
MOLECULE: O=c1cc(-c2cccc(Cl)c2)[nH]c2cc3c(cc12)OCO3
OBSERVED: 75 µM
//
MOLECULE: CCN(CC)CC(C(=O)Nc1c(C)cccc1C)/C(C)=N\NC(=S)NN (stereo not given)
OBSERVED: > 100 µM
//
MOLECULE: CC[O-].CC[O-].[O-]c1ccccc1C=NC12CC3CC(CC(C3)C1)C2.[O-]c1ccccc1C=NC12CC3CC(CC(C3)C1)C2.[Ti+4]
OBSERVED: > 100 µM
//
MOLECULE: COc1ccc(C(O)C(c2ccc(OCc3ccccc3)cc2)c2ccc(OCc3ccccc3)cc2)cc1 (stereo not given)
OBSERVED: > 100 µM
//
MOLECULE: CN(c1ccccc1)c1nc(=[N+](C)C)ss1
OBSERVED: > 100 µM
